I'd appreciate it if you could supply pIC50 values for the items below.
molecular target: Glutamate NMDA receptor; assay: Antagonist activity against NMDA receptor in rat cerebellar granule neurons assessed as inhibition of NMDA -induced increase in intracellular calcium level by Fura-2 AM dye based fluorimetry
pIC50: −log10 of the molar value.

GET /value?item= `c1ccc(CN(Cc2ccccc2)C23CC4CC(CC(C4)O2)C3)cc1` &field=pIC50 returns < 3.70

Record summary for `CN(C)C12CC3CC(CC(C)(C3)O1)C2` : reported pIC50 = < 3.70

`CCC12CC3CC(C1)CC(NCc1ccccc1)(C3)O2` yielded pIC50 of < 3.70

Lab book: pIC50 of `CCC12CC3CC(CC(N)(C3)O1)C2` noted as 4.08

Per the record, `CC12CC3CC(C1)CC(NN)(C3)O2` has pIC50 of < 3.70

Quick note, pIC50 for `CCC12CC3CC(C1)CC(N(C)C)(C3)O2` landed at 4.26

The compound identified as `CC12CC3CC(C1)CC(N)(C3)O2` registered its pIC50 at < 3.70

Lookup result for `CCN(CC)C12CC3CC(CC(CC)(C3)O1)C2` ; measured pIC50: 4.85

The compound `CN(Cc1ccccc1)C12CC3CC(CC(C3)O1)C2` showed pIC50 equal to < 3.70

The measured pIC50 associated with `CNC12CC3CC(CC(C3)O1)C2` reads < 3.70

`c1ccc(CNC23CC4CC(CC(C4)O2)C3)cc1` yielded pIC50 of < 3.70

* * *

experiment: Antagonist activity against glutamate receptor in rat cerebellar granule neurons assessed as inhibition of glutamate-induced increase in intracellular calcium level by Fura-2 AM dye based fluorimetry; type: functional, cell-based
pIC50: −log10 of the molar value.
Please go through the items and note down their pIC50.

# pIC50 (compound: `CC12CC3CC(C1)CC(NN)(C3)O2` ) is < 3.30

Lab note: measured pIC50 of `c1ccc(CN(Cc2ccccc2)C23CC4CC(CC(C4)O2)C3)cc1` was < 3.30

Notebook: `NC12CC3CC(CC(C3)O1)C2` , pIC50 read as < 3.30

What the record says about `CN(C)C12CC3CC(CC(C)(C3)O1)C2` : pIC50 is < 3.30

// pIC50 value for `CCC12CC3CC(C1)CC(N(C)Cc1ccccc1)(C3)O2` : < 3.30

Recorded result, `CCC12CC3CC(C1)CC(NC)(C3)O2` , pIC50: 3.97

// field: pIC50; key: `CCC12CC3CC(C1)CC(NCc1ccccc1)(C3)O2` ; value = < 3.30

// `NC12CC3CC(C1)CC(C1CCCCC1)(C3)O2` : pIC50 value = < 3.30

So, `CC12CC3CC(C1)CC(N)(C3)O2` ? Its pIC50 was < 3.30

Record summary for `CN(Cc1ccccc1)C12CC3CC(CC(C3)O1)C2` : reported pIC50 = < 3.30

The value of pIC50 measured for the compound `NC12CC3CC(C1)CC(c1ccccc1)(C3)O2` turned out to be 3.46

Entry `c1ccc(CNC23CC4CC(CC(C4)O2)C3)cc1` ; pIC50 = < 3.30

Sample `CCC12CC3CC(C1)CC(NN)(C3)O2` ; pIC50 observed: < 3.30

Form: compound = `CNC12CC3CC(CC(C3)O1)C2` ; pIC50 = < 3.30

`CCN(CC)C12CC3CC(CC(CC)(C3)O1)C2` has a reported pIC50 of 4.66

Reported pIC50 ( `c1ccc(CCNC23CC4CC(CC(C4)O2)C3)cc1` ) = < 3.30

In plain terms, `CCC12CC3CC(C1)CC(N(C)C)(C3)O2` has a documented pIC50 of 3.97

Reported pIC50 for `CN(CCc1ccccc1)C12CC3CC(CC(C3)O1)C2` was < 3.30

# pIC50 of `NNC12CC3CC(C1)CC(c1ccccc1)(C3)O2` = < 3.30

pIC50 reading for `CCC12CC3CC(CC(N)(C3)O1)C2` : 3.65

* * *

test system: Human respirovirus 3; experiment: Antiviral activity against parainfluenza virus 3 assessed as inhibition of viral replication; type: functional, organism-based
Activity calls are given as the source filed them. No cut-off for these calls is given here.
reportedProperty: Activity

Below: 4 compounds and their reported Activity.
Reported Human respirovirus 3 Activity for item `NC12CC3CC(CC(C3)O1)C2` was inactive

Entry `c1ccc(CNC23CC4CC(CC(C4)O2)C3)cc1` : Activity on Human respirovirus 3 = inactive

# Activity measured on Human respirovirus 3 for item `CNC12CC3CC(CC(C3)O1)C2` = inactive

Lab entry: Human respirovirus 3 assay, compound `NC12CC3CC(C1)CC(C1CCCCC1)(C3)O2` , Activity = inactive

Others:
Reading of Activity for `NC12CC3CC(C1)CC(c1ccccc1)(C3)O2` with Human respirovirus 3: inactive

Activity on Human respirovirus 3 for `CCC12CC3CC(C1)CC(NC)(C3)O2` is inactive

* * *

system: Human alphaherpesvirus 1; test: Antiviral activity against HSV1 assessed as inhibition of viral replication; assay type: functional, organism-based
Calls of active or inactive are those of the source. No cut-off for these calls is given here.
reportedProperty: Activity

response.value for `c1ccc(CNC23CC4CC(CC(C4)O2)C3)cc1` (field: Activity) = inactive

Entry `NC12CC3CC(C1)CC(c1ccccc1)(C3)O2` , Activity reported as inactive

Noted for `CCC12CC3CC(C1)CC(NC)(C3)O2` : its Activity reads inactive

Lab note: measured Activity of `CNC12CC3CC(CC(C3)O1)C2` was inactive

The value of Activity measured for the molecule `NC12CC3CC(CC(C3)O1)C2` turned out to be inactive

---
Reported Activity ( `NC12CC3CC(C1)CC(C1CCCCC1)(C3)O2` ) = inactive
